- Experimental system: Stromelysin-1 (Homo sapiens, UniProt P08254)
- Sequence (P08254 whole entry): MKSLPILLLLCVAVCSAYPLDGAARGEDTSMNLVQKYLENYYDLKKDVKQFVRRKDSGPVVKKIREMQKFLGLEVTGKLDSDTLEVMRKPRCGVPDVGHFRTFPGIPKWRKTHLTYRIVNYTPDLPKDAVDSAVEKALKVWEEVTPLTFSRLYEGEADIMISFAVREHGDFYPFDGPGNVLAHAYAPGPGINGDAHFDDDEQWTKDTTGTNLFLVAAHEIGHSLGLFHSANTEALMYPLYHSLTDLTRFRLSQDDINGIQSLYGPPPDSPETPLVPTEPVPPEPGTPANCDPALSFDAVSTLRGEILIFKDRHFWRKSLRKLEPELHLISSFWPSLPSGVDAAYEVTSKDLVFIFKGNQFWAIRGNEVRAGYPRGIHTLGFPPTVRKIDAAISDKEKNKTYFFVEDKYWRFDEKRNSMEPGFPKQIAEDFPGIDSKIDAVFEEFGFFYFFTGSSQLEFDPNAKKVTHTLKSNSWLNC
Quantity name: IC50 (µM)

Compound | Value reported
Cc1cc(=O)c(O)cc2c1C[C@H]1CC(C)(C)/C=C/C[C@@]3(C)Oc4cc(O)c(=O)cc(C)c4C[C@@H]3C[C@H](O)[C@]1(C)O2 [PYCNIDIONE] | 31
